Recorded Hepatotoxicity (time to onset) values for a group of molecules are listed next.
assay: Times to onset, minimal and maximal, observed in the indexed observations. [column 'DELAI' in source]; settings: human

The molecule listed as CC(CN(C)C)CN1c2ccccc2Sc2ccc(C#N)cc21 (stereo not given) has a reported Hepatotoxicity (time to onset) of 2 days - 7 weeks

Entry CCO.CN1CCC[C@H]1c1cccnc1 — recorded Hepatotoxicity (time to onset) = 8 months - 10 years

The recorded Hepatotoxicity (time to onset) for entry CC(C)=CCC1C(=O)N(c2ccccc2)N(c2ccccc2)C1=O equals 2 weeks - 1 month

Value of Hepatotoxicity (time to onset) reported for the molecule C=C(CC)C(=O)c1ccc(OCC(=O)O)c(Cl)c1Cl is 2 weeks - 4 weeks

Quick note, Hepatotoxicity (time to onset) for CO/N=C(\C(=O)N[C@@H]1C(=O)N2C(C(=O)O)=C(COC(N)=O)CS[C@H]12)c1ccco1 landed at 2 days

###

details: human, serum
Reported Hepatotoxicity (acute) values for a set of compounds
Keep the answer to the number alone.

CC(CN1c2ccccc2Sc2ccccc21)N(C)C (configuration not stated)    2
O=c1[nH]c2ccccc2n1C1CCN(CCCC(c2ccc(F)cc2)c2ccc(F)cc2)CC1 [PIMOZIDE]    0
O=C(O)COc1ccc(C(=O)c2cccs2)c(Cl)c1Cl    18
N=C(N)NCCCCCCC(=O)NC(O)C(=O)NCCCCNCCCN (configuration not stated)    0
[H]/N=C(\N/C(=N/[H])Nc1ccc(Cl)cc1)NC(C)C    1

response.value for O=C(O)c1cc(=O)c2c(OCC(O)COc3cccc4oc(C(=O)O)cc(=O)c34)cccc2o1 (field: Hepatotoxicity (acute)) = 0

Hepatotoxicity (acute) recorded for this compound, N[C@H](Cc1cc(I)c(Oc2cc(I)c(O)c(I)c2)c(I)c1)C(=O)O , is 0

Hepatotoxicity (acute) reading for O=C(NCCN1CCN(c2cccc3c2OC[C@H](CO)O3)CC1)c1ccc(F)cc1 : 0

Sure, the documented Hepatotoxicity (acute) for Cc1cc(NS(=O)(=O)c2ccc(N)cc2)nc(C)n1 is 1

Quick note, Hepatotoxicity (acute) for CN(C)[C@@H]1C(O)=C(C(N)=O)C(=O)[C@@]2(O)C(O)=C3C(=O)c4c(O)ccc(Cl)c4[C@@](C)(O)[C@H]3C[C@@H]12 landed at 4

compound CO[C@H]1C[C@H](O[C@H]2[C@H](C)[C@@H](O[C@@H]3O[C@H](C)C[C@H](N(C)C)[C@H]3OC(C)=O)[C@@H](C)C[C@@]3(CO3)C(=O)[C@H](C)[C@@H](OC(C)=O)[C@@H](C)[C@@H](C)OC(=O)[C@@H]2C)O[C@@H](C)[C@@H]1OC(C)=O , Hepatotoxicity (acute) observed: 27

Record summary for CCS(=O)(=O)CCn1c([N+](=O)[O-])cnc1C : reported Hepatotoxicity (acute) = 1

Short answer for C[C@H]1C[C@H]2[C@@H]3CCC4=CC(=O)C=C[C@]4(C)[C@@]3(F)[C@@H](O)C[C@]2(C)[C@@]1(O)C(=O)CO : Hepatotoxicity (acute) was 0

// field: Hepatotoxicity (acute); key: CCN(CC)CCNc1ccc(CO)c2sc3ccccc3c(=O)c12 ; value = 7

Recorded result, [Li] , Hepatotoxicity (acute): 0

Form: compound = CC(O)(CS(=O)(=O)c1ccc(F)cc1)C(=O)Nc1ccc(C#N)c(C(F)(F)F)c1 (configuration not stated) [BICALUTAMIDE] ; Hepatotoxicity (acute) = 1

Measured Hepatotoxicity (acute) of CC(=O)CC(c1ccc([N+](=O)[O-])cc1)c1c(O)c2ccccc2oc1=O (configuration not stated) : 8
